# reported [0]222/[0]208 ratio of ellipticities; entries follow
Experimental protocol: Circular dichroism (CD) spectroscopy of linear and stapled peptides in water or 40% TFE/water (Example 3)
Type: physicochemical
Run parameters: 40% TFE/water
Quantity name: [0]222/[0]208 ratio of ellipticities

1) Ac-KIKHVVKLKDENSQLKSEVSKLRSQLVKRK-NH2 [Compound 265] :: 0.80
2) Ac-(cyclo-10-14, cyclo-15-19)-KIKHVVKLK[KENSE][EKSEK]SKLRSQLVKRK-NH2 [Compound 269] :: 0.81
3) Ac-NLKQKIKHVVKLKDENSQLKSEVSKLRSQLVKRKQN-NH2 [Compound 275] :: 0.83
4) Ac-(cyclo-11-15, cyclo-16-20)-KIKHVVKLKD[ENSQK][ESEVK]KLRSQLVKRIK-NH2 [Compound 267] :: 0.77
